Test: APR_HepG2_NuclearSize_72hr: Apredica 72-hour HepG2 Assay for Nuclear Size (AID 2282925)
Conditions: high-content imaging, actives raise or lower the signal
Experimental: APR_HepG2_72hr is a cell-based, multiplexed-readout assay that uses HepG2, a human liver cell line, with measurements taken at 72 hours after chemical dosing in a 384-well plate.APR_HepG2_NuclearSize_72hr is one of 10 assay component(s) measured or calculated from the APR_HepG2_72hr assay. […] This assay endpoint, APR_HepG2_NuclearSize_72hr, was analyzed with bidirectional fitting relative to DMSO as the negative control and baseline of activity. […]
Active and inactive are the calls of the source. How the source made its calls: active means hit-call score of the fitted dose curve at least 0.9, where 1 is the maximum; inactive means score below 0.9.
# valid calls are class 1 for active, class 0 for inactive; nothing else

Some entries whose results are on file:
N#CC(Br)(Br)C(N)=O = class 0
ClCCOCCCl = class 0
CCCCCCCCCCCCCN1CC(C)OC(C)C1 (centres undefined) = class 0
Nc1ccc([N+](=O)[O-])cc1 = class 0
O=[N+]([O-])C(Br)(CO)CO = class 1

Problem: Status in this test for `O=C1CCCO1` ?
Result: class 0

Problem: Status in this test for ClC1=C(Cl)C2(Cl)C3C(Cl)C=CC3C1(Cl)C2(Cl)Cl (centres undefined) ?
Result: class 0

Problem: Status in this test for `c1ccc2c(c1)oc1ccccc12` ?
Result: class 0

Problem: Status in this test for `OCCOCCO` ?
Result: class 0

Problem: Status in this test for O=C(O)C1C2CCC(O2)C1C(=O)O (centres undefined) ?
Result: class 1

Problem: Status in this test for `COC(=O)Nc1nc2ccccc2[nH]1` ?
Result: class 1

Problem: Status in this test for `Nc1ccc(N=Nc2ccccc2)cc1` ?
Result: class 0

###

Assay: APR_HepG2_CellLoss_72hr: Apredica 72-hour HepG2 Assay for Cell Loss (AID 2282915)
Settings: high-content imaging
Active and inactive are the calls of the source. How the source made its calls: active means hit-call score of the fitted dose curve at least 0.9, where 1 is the maximum; inactive means score below 0.9.
TEST READOUT: AC50

ClCCOCCCl = inactive
c1ccc(N=Nc2ccccc2)cc1 = inactive
CCCCCCCCOC(=O)c1ccc(C(=O)OCCCCCCCC)c(C(=O)OCCCCCCCC)c1 = inactive
CO[C@@H]1[C@H](OC(=O)NC(=O)CCl)CC[C@]2(CO2)[C@H]1[C@@]1(C)O[C@@H]1CC=C(C)C = inactive

# input for lookup
Problem: Returns the measured AC50 for the input compound. Input: `CCNS(=O)(=O)C(F)(F)C(F)(F)C(F)(F)C(F)(F)C(F)(F)C(F)(F)C(F)(F)C(F)(F)F`
Result: 81.5 µM (active)

###

Assay: BSK_SAg_PBMCCytotoxicity: PBMC Cytotoxicity Assessment in the BioMAP Diversity Plus: SAg Assay (AID 2283093);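 further: PBMC viability measured as Alamar Blue reduction fluorescence at 546/580 nm; fitted both ways against DMSO so a hit may be loss or gain of signal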
Conditions: primary human HUVEC with PBMC
Calls of active or inactive are those of the source. Rule for the calls: active = hit-call score of the fitted dose curve at least 0.9, where 1 is the maximum; inactive = score below 0.9.
# valid calls are active, inactive; nothing else

Some entries whose results are on file:
Nc1ccc(N=Nc2ccccc2)cc1 = inactive
CC(O)CCO (stereo not given) = inactive
COC(=O)Nc1nc2ccccc2[nH]1 = inactive
CCCSC(=O)N(CCC)CCC = inactive
c1ccc(N=Nc2ccccc2)cc1 = inactive

Problem: Status in this test for `CCC[CH2][Sn]([Cl])([CH2]CCC)[CH2]CCC` ?
Result: active

Problem: Status in this test for `Clc1ccc(Cl)c(Cl)c1` ?
Result: inactive

Problem: Status in this test for `c1ccc2c(c1)oc1ccccc12` ?
Result: inactive

Problem: Status in this test for CCOc1cccc(C2(N3CCN(c4ccccc4)CC3)CCC(C)CC2)c1 (stereo not given) ?
Result: inactive

Problem: Status in this test for `N#CC(Br)Br` ?
Result: inactive

Problem: Status in this test for c1ccc(C2CO2)cc1 (stereo not given) ?
Result: inactive

Problem: Status in this test for `O=C1CCCO1` ?
Result: inactive

###

Assay: CCTE_Mundy_HCI_Cortical_Synap_Neur_Matur_NeuriteSpotCountPerNeuron: CCTE's Synaptogenesis and Neurite Maturation Assay in rat cortical cells for Neurite Spot Count per Neuron Count, Mundy Lab (AID 2284215)
Calls of active or inactive are those of the source. Rule for the calls: active = hit-call score of the fitted dose curve at least 0.9, where 1 is the maximum; inactive = score below 0.9.
# valid calls are active, inactive; nothing else

Some entries whose results are on file:
[O-][Cl+]O = inactive
Nc1cc(Cl)cc(C(=O)O)c1Cl = inactive

Problem: Status in this test for `COC(=O)Nc1nc2ccccc2[nH]1` ?
Result: inactive

Problem: Status in this test for `CNC(=O)Oc1cccc2c1OC(C)(C)C2` ?
Result: inactive

Problem: Status in this test for `CCCCOC(=O)c1ccccc1C(=O)OCc1ccccc1` ?
Result: inactive

Problem: Status in this test for `CCC[CH2][Sn]([Cl])([CH2]CCC)[CH2]CCC` ?
Result: active

Problem: Status in this test for `CN(C)[C@@H]1C(=O)C(C(N)=O)=C(O)[C@@]2(O)C(=O)C3=C(O)c4c(O)cccc4[C@@](C)(O)[C@H]3C[C@@H]12` ?
Result: inactive

###

Target: Androgen Receptor/SRC-1 Co-activator, AR (gene 367) (UniProt P10275)
Sequence (P10275 whole entry, looked up): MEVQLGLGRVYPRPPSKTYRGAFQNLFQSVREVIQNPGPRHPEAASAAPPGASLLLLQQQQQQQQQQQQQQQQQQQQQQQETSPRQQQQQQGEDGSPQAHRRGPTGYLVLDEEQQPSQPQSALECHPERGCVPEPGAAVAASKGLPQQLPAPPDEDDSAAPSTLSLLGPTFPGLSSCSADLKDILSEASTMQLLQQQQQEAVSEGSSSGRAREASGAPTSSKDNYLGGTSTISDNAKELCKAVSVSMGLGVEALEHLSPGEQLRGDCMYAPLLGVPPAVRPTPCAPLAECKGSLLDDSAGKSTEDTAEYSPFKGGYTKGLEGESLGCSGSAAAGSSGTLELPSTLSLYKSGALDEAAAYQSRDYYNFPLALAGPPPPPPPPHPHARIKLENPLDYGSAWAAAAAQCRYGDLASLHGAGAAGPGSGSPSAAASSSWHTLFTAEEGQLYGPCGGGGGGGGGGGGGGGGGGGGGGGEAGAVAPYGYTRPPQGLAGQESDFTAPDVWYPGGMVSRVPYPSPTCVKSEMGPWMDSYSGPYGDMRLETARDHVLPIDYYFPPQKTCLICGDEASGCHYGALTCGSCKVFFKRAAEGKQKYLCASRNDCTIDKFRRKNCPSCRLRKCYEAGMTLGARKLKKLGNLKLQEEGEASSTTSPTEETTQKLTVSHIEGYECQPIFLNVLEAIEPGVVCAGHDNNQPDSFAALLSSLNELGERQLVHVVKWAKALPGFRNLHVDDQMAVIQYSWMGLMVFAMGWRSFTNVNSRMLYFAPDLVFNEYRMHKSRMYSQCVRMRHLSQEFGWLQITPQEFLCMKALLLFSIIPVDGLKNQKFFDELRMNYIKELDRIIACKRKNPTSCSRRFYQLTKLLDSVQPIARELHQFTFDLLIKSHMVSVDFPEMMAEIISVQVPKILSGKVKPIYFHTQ
Assay: OT_AR_ARSRC1_0480: Odyssey Thera (OT) 8-hour HEK293T Protein-Complementation Assay for Androgen Receptor/SRC-1 Co-activator (AID 2283354);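 further: hits raise the complementation signal above DMSO so AC50 marks enhancers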
Records with an inconclusive call do not appear. Calls of active or inactive are those of the source. How the source made its calls: active means hit-call score of the fitted dose curve at least 0.9, where 1 is the maximum; inconclusive means response in the unintended direction; inactive means score below 0.9.
# valid calls are active, inactive; nothing else

Some entries whose results are on file:
Nc1ccc(Cl)cc1N = inactive
CCCCC(CC)COC(=O)c1ccc(C(=O)OCC(CC)CCCC)c(C(=O)OCC(CC)CCCC)c1 (stereo not given) = inactive
COC(=O)Nc1nc2ccccc2[nH]1 = inactive
Nc1ccc([N+](=O)[O-])cc1 = inactive
CC(C)N(Cc1ccccc1)C(=O)C(C)(C)C = inactive

Problem: Status in this test for `CNC(=O)Oc1cccc2c1OC(C)(C)C2` ?
Result: inactive

Problem: Status in this test for `O=C1CCCO1` ?
Result: inactive

Problem: Status in this test for `Cc1cc(N=Nc2ccccc2C)ccc1N` ?
Result: active

Problem: Status in this test for `O=[N+]([O-])C(Br)(CO)CO` ?
Result: active

Problem: Status in this test for C[N+](C)(C)CC1CO1 (stereo not given) ?
Result: inactive

###

Molecular target: Cellular tumor antigen p53 (Homo sapiens) (UniProt P04637)
Sequence (P04637 whole entry, looked up): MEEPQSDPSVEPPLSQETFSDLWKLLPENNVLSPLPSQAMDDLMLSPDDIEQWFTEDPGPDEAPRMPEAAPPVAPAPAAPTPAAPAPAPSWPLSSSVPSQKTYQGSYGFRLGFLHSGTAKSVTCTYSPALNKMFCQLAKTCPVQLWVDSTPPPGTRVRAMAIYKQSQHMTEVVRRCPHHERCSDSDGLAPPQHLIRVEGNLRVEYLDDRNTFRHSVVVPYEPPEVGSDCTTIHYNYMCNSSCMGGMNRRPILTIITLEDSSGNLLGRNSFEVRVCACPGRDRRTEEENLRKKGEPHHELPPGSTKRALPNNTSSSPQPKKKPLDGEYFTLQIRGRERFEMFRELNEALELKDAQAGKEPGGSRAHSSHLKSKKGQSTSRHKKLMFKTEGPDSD
Experiment: TOX21_p53_BLA_p4_ratio: Tox21 HCT-116 p53 Agonism Beta-lactamase Assay, Ratio, Phase 4 (AID 2283601)
Inconclusive results are not listed. Activity calls are given as the source filed them. The calls were made as follows: active = hit-call score of the fitted dose curve at least 0.9, where 1 is the maximum; inconclusive = response in the unintended direction; inactive = score below 0.9.
# valid calls are y (active), n (inactive); nothing else

CNC(=O)Oc1cccc2c1OC(C)(C)C2 = n

Problem: Status in this test for `CCN(CC)N=O` ?
Result: n

Problem: Status in this test for `ClCCOCCCl` ?
Result: n

Problem: Status in this test for `O=C(N[C@H](c1ccccc1)[C@@H]1CN2CCC1CC2)c1c(Cl)ccc(C(F)(F)F)c1Cl` ?
Result: y

Problem: Status in this test for CC(C)(C)C(O)(CCc1ccc(Cl)cc1)Cn1cncn1 (stereo unspecified) ?
Result: n

Problem: Status in this test for `c1ccc2c(c1)-c1cccc3cccc-2c13` ?
Result: n

###

Assay: BSK_KF3CT_SRB: Viability Assessment in the BioMAP Diversity Plus: KF3CT Assay (AID 2283069);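 further: total protein by sulforhodamine B staining as a cytotoxicity measure; read 24 h after compound addition; fitted for both signal gain and loss against DMSO baseline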
Settings: primary human keratinocytes with fibroblasts
Experimental: BSK_KF3CT is a cell-based, multiplexed-readout assay that uses keratinocytes and foreskin fibroblasts, a human skin primary cell co-culture, with measurements taken at 24 hours after chemical dosing in a 96-well plate.BSK_KF3CT_SRB is an assay component measured in the BSK_KF3CT assay. It measures 0.1% sulforhodamine related to cell death using Sulforhodamine staining technology.Data from the assay component BSK_KF3CT_SRB was analyzed into 1 assay endpoint. […]
Calls of active or inactive are those of the source. The calls were made as follows: active = hit-call score of the fitted dose curve at least 0.9, where 1 is the maximum; inactive = score below 0.9.
# valid calls are Yes = active, No = inactive; nothing else

Some entries whose results are on file:
Cc1cc(N=Nc2ccccc2C)ccc1N = Yes
CC(C)(C)OOC(C)(C)CCC(C)(C)OOC(C)(C)C = No
CN(C)c1ccc(C(=O)c2ccc(N(C)C)cc2)cc1 = No

Problem: Status in this test for c1ccc(C2CO2)cc1 (stereo not drawn) ?
Result: No

Problem: Status in this test for `O=C(Nc1ccccc1)c1ccccc1I` ?
Result: No

Problem: Status in this test for `Nc1ccc(Cc2ccc(N)cc2)cc1` ?
Result: No

Problem: Status in this test for `Clc1ccc(C(c2ccc(Cl)cc2)C(Cl)(Cl)Cl)cc1` ?
Result: Yes

Problem: Status in this test for `CCCCCCCCn1sccc1=O` ?
Result: Yes

Problem: Status in this test for `CCCCCCCCOC(=O)c1ccc(C(=O)OCCCCCCCC)c(C(=O)OCCCCCCCC)c1` ?
Result: No

Problem: Status in this test for `C=CCc1ccc2c(c1)OCO2` ?
Result: No

Problem: Status in this test for `Nc1ccc(N=Nc2ccccc2)cc1` ?
Result: No

###

Read-out: Human Leukocyte Antigen - DR isotype (HLADR), HLA-DRA (gene 3122)
Assay: BSK_3C_HLADR: BioMAP Diversity Plus: 3C Assay for Human Leukocyte Antigen - DR isotype (HLADR) Biomarker Activity (AID 2283019)
Conditions: primary human endothelial cells (HUVEC); actives raise or lower the signal
Active and inactive are the calls of the source. How the source made its calls: active means hit-call score of the fitted dose curve at least 0.9, where 1 is the maximum; inactive means score below 0.9.
# valid calls are true for active, false for inactive; nothing else

Some entries whose results are on file:
CN(C)[C@@H]1C(=O)C(C(N)=O)=C(O)[C@@]2(O)C(=O)C3=C(O)c4c(O)cccc4[C@@](C)(O)[C@H]3C[C@@H]12 = false
[O-][Cl+]O = false
CCCCCCCCOC(=O)c1ccc(C(=O)OCCCCCCCC)c(C(=O)OCCCCCCCC)c1 = false
OCCOCCO = false
CCCCCOC(=O)c1ccccc1C(=O)OCCCCC = true

Problem: Status in this test for `CC(C)COC(=O)c1ccccc1C(=O)OCC(C)C` ?
Result: true

Problem: Status in this test for `OCCCBr` ?
Result: false

Problem: Status in this test for `CCOC(=O)[C@]1(c2ccccc2)Oc2ccccc2[C@@H]1N` ?
Result: true

Problem: Status in this test for `N#CC(Br)(Br)C(N)=O` ?
Result: false

Problem: Status in this test for `CO[C@@H]1[C@H](OC(=O)NC(=O)CCl)CC[C@]2(CO2)[C@H]1[C@@]1(C)O[C@@H]1CC=C(C)C` ?
Result: true

Problem: Status in this test for `c1ccc(NNc2ccccc2)cc1` ?
Result: false

Problem: Status in this test for `Nc1ccc(Oc2ccc(N)cc2)cc1` ?
Result: false

Problem: Status in this test for `O=C(Nc1ccccc1)c1ccccc1I` ?
Result: false

Problem: Status in this test for c1ccc(C2CO2)cc1 (stereo unspecified) ?
Result: false

Problem: Status in this test for `Clc1ccc(Cl)c(Cl)c1` ?
Result: false

Problem: Status in this test for `c1ccc2c(c1)-c1cccc3cccc-2c13` ?
Result: false
